# System Name: Fuc(a1-2)Gal(b1-3)GlcNAc(b1-3)GalNAc
# Test Description: glycan array binding signal (z-score within array); higher = stronger binding
# Measurement Context: glycan notation: IUPAC condensed, linker removed
This is one part of a sample in which the strongest signals are shown more often than they occur.
Observable: glycan array binding signal (z-score)
Numbers only.

Lab note: Gal 9 (Homo sapiens), O00182 (protein) MAFSGSQAPYLSPAVPFSGTIQGGLQDGLQITVNGTVLSSSGTRFAVNFQTGFSGNDIAFHFNPRFEDGGYVVCNTRQNGSWGPEERKTHMPFQKGMPFDLCFLVQSSDFKVMVNGILFVQYFHRVPFHRVDTISVNGSVQLSYISFQNPRTVPVQPAFSTVPFSQPVCFPPRPRGRRQKPPGVWPANPAPITQTVIHTVQSAPGQMFSTPAIPPMMYPHPAYPMPFITTILGGLYPSKSILLSGTVLPSAQRFHINLCSGNHIAFHLNPRFDENAVVRNTQIDNSWGSEERSLPRKMPFVRGQSFSVWILCEAHCLKVAVDGQHLFEYYHRLRNLPTINRLEVGGDIQLTHVQT gave glycan array binding signal (z-score) of -0.3

Sourced from the supplement of paper PMC8728848
